B1: BCL2L13 (parent)
chain: QSLDQEILLKVKTEIEEELKSLDK

Variants of: B1
Protocol: protein stability index of a GFP-peptide fusion (GPS, HEK-293T) (PSI 1-6); higher = more stable;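 further: lentivirally expressed fusions sorted by FACS into six bins by GFP to DsRed ratio, PSI derived from sequencing read proportions per bin multiplied by bin number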
Run Parameters: c terminus: a fixed tail appended
For each record, write down the corresponding protein stability index.
Numbers only.

1. K10I 3.21
2. K20R 5.18
3. K12Q 4.62

Could you report protein stability index for every entry in the following list?
1. S2V
2. K24P
3. E6D

[4.16, 5.06, 4.83]

Reference source for all entries: the supplement of paper PMC10567573
